- target: Protein cereblon (Homo sapiens, UniProt Q96SW2)
- Sequence (Q96SW2 whole entry, the tested form may be a part): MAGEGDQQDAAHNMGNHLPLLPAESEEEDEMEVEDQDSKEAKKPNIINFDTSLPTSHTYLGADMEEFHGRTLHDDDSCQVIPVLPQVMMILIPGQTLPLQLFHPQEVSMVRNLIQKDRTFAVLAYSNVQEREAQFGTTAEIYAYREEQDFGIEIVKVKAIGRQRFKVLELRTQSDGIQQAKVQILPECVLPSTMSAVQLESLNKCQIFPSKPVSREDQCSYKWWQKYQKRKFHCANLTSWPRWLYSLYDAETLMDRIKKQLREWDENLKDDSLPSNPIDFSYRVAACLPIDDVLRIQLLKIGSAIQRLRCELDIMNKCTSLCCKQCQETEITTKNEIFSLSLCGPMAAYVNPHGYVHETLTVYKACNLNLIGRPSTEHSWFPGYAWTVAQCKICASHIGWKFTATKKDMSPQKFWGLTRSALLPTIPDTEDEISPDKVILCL
- method-notes: Fluorescence Binding Assay: Fluorescence quenching end point measurements were performed in black polystyrene 384-plates on Tecan Safire monochromator reader with the following settings: excitation 280 nm; excitation bandwidth 10.0 nm; emission collection 340 nm; emission bandwidth 20.0 nm; high sensitivity flash mode; integration time 40 μS; delay 0 […]. All measurements were done in duplicates; GraphPad Prism 5.03 was used for data evaluation, curve fitting, plotting and determination of IC50 values.Serial dilutions of each tested ligands were mixed with truncated CRBN (319-427) to a final volume of 25 μL in the assay buffer (20 mM sodium phosphate buffer, pH 6.5, with 150 mM sodium chloride). The final concentration of CRBN in all assay will be 5-10 μM with DMSO level at 4%. A control lanes were prepared with only tested ligands without the addition of CRBN, top up with assay buffer to 25 μL. Plates were incubated for 5 minutes and analyzed using the monochromator plate reader.
pIC50: −log10 of the molar value.
assay-readout: pIC50

Task item: Quick check: pIC50 on Protein cereblon (Homo sapiens, UniProt Q96SW2), item "Nc1ccc(-c2ccc3c(c2)CC(=O)N3)cn1" ?
Reply: < 3.52
